# Target Entity: 20S proteasome β5 chymotrypsin-like activity (Suc-LLVY-AMC) (Homo sapiens, UniProt P20618+P28074)
# Construct: Proteasomes were isolated from red blood cells
# Experiment: Protease assay, chymotrypsin-like activity of isolated 20S proteasomes (LLVY substrate)
# Experimental Context: isolated 20S proteasome; LLVY-MCA 50 μM; 15 min pre-incubation; read-out: IC50 β5 Chymotrypsin-like (Y)
# Procedure: Proteasomes were isolated from red blood cells. Cells were lysed with DTT (1 mM), and the stroma-free supernatant was loaded on DEAE-sepharose (Toyopearls). […] The purity was determined using SDS-PAGE. Suc-LLVY-AMC, Z-VGR-AMC and LLE-AMC (BACHEM, Calbiochem) was used, in order to determine the chymotrypsin-like, trypsin-like or caspase-like (post-acidic)-activities of the proteasome. […] The AMC as released was detected using fluorescence emission at 460 nm (excitation at 390 nm) using a TECAN-fluorimeter. […]
Where a SMILES comes first, the peptide text is derived from it. [ ]: non-standard residue; d: D form. The star is where a group is joined. Leu(ol) = CC(C)C[C@H](N)CO; Cbz = O=C(OCc1ccccc1)*; OBn = c1ccc(CO*)cc1
Readout Label: IC50

# IC50 lookup, item CC(C)C[C@@H](CO)NC(=O)[C@H](CC(=O)OCc1ccccc1)NC(=O)[C@H](CC(C)C)NC(=O)OCc1ccccc1 [Compound 11] (Cbz-Leu-Asp(OBn)-[Leu(ol)])
> 10 µM

Repeat with CC(C)C[C@@H](C=O)NC(=O)[C@H](CC(=O)O)NC(=O)[C@@H](N)CC(C)C [Compound 14] (H-Leu-Asp-Leu-aldehyde)
> 10 µM

Repeat with CC(C)C[C@@H](COC(Cl)=CCl)NC(=O)[C@H](CC(C)C)NC(=O)[C@H](CC(C)C)NC(=O)OCc1ccccc1
> 10 µM
